system: Trypanosoma cruzi; assay: Inhibition of ergosterol biosynthesis in epimastigotes of Trypanosoma cruzi assessed as ratio of squalene/ergosterol at 25 uM after 24 hrs by TLC analysis (reference value: 0.76); format: functional
metric-name: Ratio

mol: Cc1ccc(-c2csc(N/N=C3\CCc4ccccc43)n2)cc1
meas-value: 0.76
--
mol: Cc1ccc(-c2csc(N/N=C3\CCc4ccc(C)cc43)n2)cc1
meas-value: 0.8
--
mol: CN(C/C=C/C#CC(C)(C)C)Cc1cccc2ccccc12
meas-value: 1.54
--
mol: Cc1ccc(-c2csc(N/N=C3\CCc4c(C)cccc43)n2)cc1
meas-value: 2.92
--
mol: Cc1cccc2c1CC/C2=N\Nc1nc(-c2ccc(Cl)cc2)cs1
meas-value: 1.25
